# target.desc: T1, AAV5
# T1 construct: also called adeno-associated virus serotype 5
# assay: SPR, AAV on CM5 chip;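 further: surface plasmon resonance with AAV amine-coupled to the chip as ligand, nanobodies injected as analyte over a concentration series, rate constants and affinity fitted from binding curves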
measured.property: Kd (nM)

[[record]]
binder = "A4-022 (VHH) VHH: VQLQESGGGLVQPGGSLRLSCAASGSGFSINTMGWYRQAPGKQRELVATVTRDGSTNYADFVKGRFTISRDNAKNTVYLQMNSLRPEDTAVYYCHLDEVRESSWTTSNLWGQGTQVTVSS"
measured_property = "Kd"
observed_measurement = 9.61

[[record]]
binder = "A4-040 (VHH) VHH: VQLQESGGGLVQPGGSLRLSCAASGRIFSINTMGWYRQAPGKQRELVATVTRGGSTNYADSVKGRFTISRDNAKNTVYLQMNSLRPEDTAVYYCHVDEIRQSSWTTSNLWGQGTQVTVSS"
measured_property = "Kd"
observed_measurement = 3.04

[[record]]
binder = "A4-011 (VHH) VHH: VQLQESGGGLVQAGGSLRLSCAASGSIFSINSMGWYRQAPGKQRELVATVTRGGNTNYAGSVKGRFTISRDNAKNTVYLQMNSLRPEDTAVYYCHVDEVRESSWTTSNLWGQGTQVTVSS"
measured_property = "Kd"
observed_measurement = 29.6

[[record]]
binder = "A4-028 (VHH) VHH: VQLQESGGGLVQPGGSLRLSCAASGSNFSINTMGWYRQAPGKQRELVATVTRGGDTNYADSVKGRFTISRDNAKNTVYLQMNSLRPEDTAVYYCHVDEIRESSWTTSNLWGQGTQVTVSS"
measured_property = "Kd"
observed_measurement = 26.4


Every entry's value here was drawn from patent US20260193326A1.
